Item-by-item account of Ki
Molecular target: Akt3 human enzyme (Homo sapiens, UniProt Q9Y243)
Construct: purchased Upstate Chemicon 14-502
Sequence (Q9Y243 whole entry): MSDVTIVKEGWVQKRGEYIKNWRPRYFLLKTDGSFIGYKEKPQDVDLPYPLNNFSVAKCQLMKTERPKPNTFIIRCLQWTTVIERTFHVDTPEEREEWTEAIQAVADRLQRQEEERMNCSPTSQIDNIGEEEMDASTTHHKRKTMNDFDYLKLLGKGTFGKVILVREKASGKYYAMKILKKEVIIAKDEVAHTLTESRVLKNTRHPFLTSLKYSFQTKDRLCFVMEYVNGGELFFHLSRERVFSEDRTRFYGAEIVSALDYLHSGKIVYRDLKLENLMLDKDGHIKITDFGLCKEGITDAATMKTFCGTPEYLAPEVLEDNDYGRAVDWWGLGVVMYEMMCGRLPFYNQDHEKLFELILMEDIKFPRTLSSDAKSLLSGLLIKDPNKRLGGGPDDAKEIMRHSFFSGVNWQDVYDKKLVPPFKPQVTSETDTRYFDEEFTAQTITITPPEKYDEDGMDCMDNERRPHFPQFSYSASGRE
Test: Akt3 inhibition assay (IMAP FP);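 note: kinase reaction run 60 min at room temperature after 30 µM ATP start, phosphorylated substrate captured on IMAP beads and read as fluorescence polarization (mP)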
Format: biochemical
Conditions: average Ki; read-out: Akt3 Ki
Kindly provide the numeric value in µM only, without the unit symbol.

| LINE_NOTATION | Ki / µM |
| --- | --- |
| Cc1ccc(CN2CCC[C@@H](Nc3ccc4[nH]ncc4c3)C2)cc1OCCO | 0.0635 |

Challenge: Return reported Ki; argument: CS(=O)(=O)Cc1cccc(CN2CCC[C@H](Nc3ccc4[nH]ncc4c3)C2)c1
Response given: 29.2

Challenge: What about CCS(=O)(=O)Nc1cccc(CN2CCC[C@H](Nc3ccc4[nH]ncc4c3)C2)c1 ?
Response given: 7.87

---

Biological target: p70S6K human enzyme (Homo sapiens, UniProt P23443, T412E)
Construct: purchased Upstate Chemicon 14-486
Sequence (P23443 1-421 T412E limits assumed): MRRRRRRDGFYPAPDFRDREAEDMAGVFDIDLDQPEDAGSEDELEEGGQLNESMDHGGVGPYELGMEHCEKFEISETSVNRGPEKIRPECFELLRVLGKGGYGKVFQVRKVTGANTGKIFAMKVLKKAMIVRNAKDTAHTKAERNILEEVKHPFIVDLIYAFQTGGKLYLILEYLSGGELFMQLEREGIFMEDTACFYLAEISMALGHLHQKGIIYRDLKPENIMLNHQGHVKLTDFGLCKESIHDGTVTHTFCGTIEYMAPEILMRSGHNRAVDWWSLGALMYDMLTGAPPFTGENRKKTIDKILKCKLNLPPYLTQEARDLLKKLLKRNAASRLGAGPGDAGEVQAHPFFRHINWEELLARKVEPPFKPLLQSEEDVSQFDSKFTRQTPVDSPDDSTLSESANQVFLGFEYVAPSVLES
Assay: p70S6K inhibition assay (IMAP FP)
Assay type: biochemical
Conditions: 30 μM ATP; Ki=IC50/(1+([ATP Challenge]/EC50 ATP)); read-out: p70S6K Ki, Avg
OUTCOME_MEASURE: Ki (µM)
Kindly provide the numeric value in µM only, without the unit symbol.

Solved entries:
| MOLECULE | MEASURED_TARGET | RECORDED_MEASUREMENT |
| --- | --- | --- |
| Cc1ccc(CN2CCC[C@@H](Nc3ccc4[nH]ncc4c3)C2)c(C)c1 | p70S6K human enzyme (Homo sapiens, UniProt P23443, T412E) | 0.354 |
| NC(=O)COc1cccc(CN2CCC[C@H](Nc3ccc4[nH]ncc4c3)C2)c1 | p70S6K human enzyme (Homo sapiens, UniProt P23443, T412E) | 2.73 |
| c1cc2c(cc1CN1CCC[C@H](Nc3ccc4[nH]ncc4c3)C1)OCCO2 | p70S6K human enzyme (Homo sapiens, UniProt P23443, T412E) | 5.16 |
| C#Cc1ccc(CN2CC[C@@H](Nc3cccc4cnccc34)C2)cc1 | p70S6K human enzyme (Homo sapiens, UniProt P23443, T412E) | 0.326 |
| CSc1ccc(CN2CCCC(Nc3cccc4cnccc34)C2)cc1 (stereo not shown) | p70S6K human enzyme (Homo sapiens, UniProt P23443, T412E) | 1.28 |
| c1ccc(CN2CCC[C@@H](Nc3ccc4[nH]ncc4c3)C2)cc1 | p70S6K human enzyme (Homo sapiens, UniProt P23443, T412E) | 1.3 |
| Cc1ccc(CN2CCC[C@@H](Nc3ccc4[nH]ncc4c3)C2)cc1O | p70S6K human enzyme (Homo sapiens, UniProt P23443, T412E) | 0.34 |
| Brc1ccc(CN2CCC[C@H](Nc3ccc4[nH]ncc4c3)C2)cc1 | p70S6K human enzyme (Homo sapiens, UniProt P23443, T412E) | 2.52 |

Consider the additional molecule presented here.
Challenge: Return reported Ki; argument: CS(=O)(=O)Nc1cc(CN2CCC[C@@H](Nc3ccc4[nH]ncc4c3)C2)ccc1Cl
Response given: 0.894

---

Item-by-item account of Ki
Target: ROCK1 (Homo sapiens, UniProt Q13464)
Construct: purchased Upstate/Chemicon 14-601
Sequence (Q13464 17-535 limits assumed): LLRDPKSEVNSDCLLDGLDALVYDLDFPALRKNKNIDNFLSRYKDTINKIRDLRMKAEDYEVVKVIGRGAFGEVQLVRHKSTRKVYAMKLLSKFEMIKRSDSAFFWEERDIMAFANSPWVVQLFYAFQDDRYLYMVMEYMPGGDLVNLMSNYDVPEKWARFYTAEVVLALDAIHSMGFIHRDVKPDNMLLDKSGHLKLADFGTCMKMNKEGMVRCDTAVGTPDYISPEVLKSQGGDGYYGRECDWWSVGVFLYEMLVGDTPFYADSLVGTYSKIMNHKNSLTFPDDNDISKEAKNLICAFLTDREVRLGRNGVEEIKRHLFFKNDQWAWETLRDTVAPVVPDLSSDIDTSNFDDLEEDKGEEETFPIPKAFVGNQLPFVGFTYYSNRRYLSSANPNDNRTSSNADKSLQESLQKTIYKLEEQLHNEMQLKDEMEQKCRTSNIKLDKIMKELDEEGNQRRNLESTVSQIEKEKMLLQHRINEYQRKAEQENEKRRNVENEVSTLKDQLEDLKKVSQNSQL
Experiment: Rho kinase inhibition assay (IMAP fluorescence polarization), ROCK1
Format: biochemical
Conditions: Avg, 10 μM ATP
Kindly provide the numeric value in µM only, without the unit symbol.

| LINE_NOTATION | OUTCOME_MEASURE | READING_UNIT | RECORDED_MEASUREMENT |
| --- | --- | --- | --- |
| CN(c1cccc(CN2CCC[C@H](Nc3ccc4[nH]ncc4c3)C2)c1)S(C)(=O)=O | Ki | µM | 0.585 |
| c1cc2cc(CN3CCC[C@@H](Nc4ccc5[nH]ncc5c4)C3)ccc2[nH]1 | Ki | µM | 0.0497 |
| C#Cc1ccc(CN2CC[C@@H](Nc3cccc4cnccc34)C2)cc1 | Ki | µM | 0.0146 |
| NC(=O)Cn1ccc2cc(CN3CCC[C@H](Nc4ccc5[nH]ncc5c4)C3)ccc21 | Ki | µM | 0.0507 |

Challenge: Return reported Ki; argument: c1cc(C2CC2)ccc1CN1CCC[C@H](Nc2ccc3[nH]ncc3c2)C1
Response given: 0.0816

Challenge: What about NC(=O)Cn1ccc2ccc(CN3CCC[C@H](Nc4ccc5[nH]ncc5c4)C3)cc21 ?
Response given: 0.234

Challenge: What about CCOC(=O)c1ccc(CN2CCC[C@H](Nc3ccc4[nH]ncc4c3)C2)cc1 ?
Response given: 1.89

Challenge: What about COc1nccc2c(N[C@@H]3CCN(Cc4ccc(C)c(OCCO)c4)C3)cccc12 ?
Response given: 16.6

---

Target: ROCK1 (Homo sapiens)
Construct: purchased Upstate/Chemicon 14-601
Test: Rho kinase inhibition assay (IMAP fluorescence polarization), ROCK1
Assay type: biochemical
Conditions: Avg, 10 μM ATP
OUTCOME_MEASURE: Ki (nM)
Kindly provide the numeric value in nM only, without the unit symbol.

Solved entries:
| COMPOUND | READING_UNIT | RECORDED_MEASUREMENT |
| --- | --- | --- |
| c1cc2cc(CN3CCC[C@@H](Nc4ccc5[nH]ncc5c4)C3)ccc2o1 [Compound 1.131] | nM | 19.7 |
| Cc1c(CN2CCC[C@H](Nc3ccc4[nH]ncc4c3)C2)cccc1NS(=O)(=O)N(C)C [Compound 1.275] | nM | 402 |
| Brc1cccc(CN2CCC[C@@H](Nc3ccc4[nH]ncc4c3)C2)c1 [Compound 1.210] | nM | 95.1 |
| NCc1cccc(CN2CCC[C@H](Nc3ccc4[nH]ncc4c3)C2)c1 [Compound 1.184] | nM | 843 |
| Brc1ccc(CN2CCC[C@H](Nc3ccc4[nH]ncc4c3)C2)cc1 [Compound 1.142] | nM | 104 |
| NS(=O)(=O)c1cccc(CN2CCC[C@H](Nc3ccc4[nH]ncc4c3)C2)c1 [Compound 1.215] | nM | 103 |
| c1cn(-c2ccc(CN3CCC[C@H](Nc4ccc5[nH]ncc5c4)C3)cc2)cn1 [Compound 1.255] | nM | 3560 |
| NS(=O)(=O)c1ccc2nc(CN3CC[C@@H](Nc4cccc5cnccc45)C3)[nH]c2c1 [Compound 2.087] | nM | 896 |
| Cc1ccc(CN2CCC[C@@H](Nc3ccc4[nH]ncc4c3)C2)cc1OCCO [Compound 1.161] | nM | 9.9 |
| CS(=O)(=O)Nc1cccc(CN2CCC[C@@H](Nc3ccc4[nH]ncc4c3)C2)c1 [Compound 1.093] | nM | 64.5 |

Consider the additional compound presented here.
Challenge: Return reported Ki; argument: CCc1ccc(CN2CCC[C@@H](Nc3ccc4[nH]ncc4c3)C2)cc1 [Compound 1.136]
Response given: 40.3

---

Biological target: p70S6K human enzyme (Homo sapiens, UniProt P23443, T412E)
Construct: purchased Upstate Chemicon 14-486
Test: p70S6K inhibition assay (IMAP FP);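 note: kinase reaction run at room temperature, phosphorylated substrate captured on IMAP beads and read as fluorescence polarization in mP, IC50 then converted to Ki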
Assay type: biochemical
Conditions: 30 μM ATP; Ki=IC50/(1+([ATP Challenge]/EC50 ATP)); read-out: p70S6K Ki, Avg
Item-by-item account of Ki
Kindly provide the numeric value in µM only, without the unit symbol.

| COMPOUND | MEASURED_TARGET | READING_UNIT | Ki |
| --- | --- | --- | --- |
| c1cc(CN2CCC[C@H](Nc3ccc4[nH]ncc4c3)C2)cc(C2CC2)c1 [Compound 1.186] | p70S6K human enzyme (Homo sapiens, UniProt P23443, T412E) | µM | 1.61 |
| CCS(=O)(=O)Nc1cc(CN2CC[C@@H](Nc3cccc4cnccc34)C2)ccc1C [Compound 2.054] | p70S6K human enzyme (Homo sapiens, UniProt P23443, T412E) | µM | 0.439 |

Challenge: Return reported Ki; argument: CC(=O)NCc1cccc(CN2CCC[C@H](Nc3ccc4[nH]ncc4c3)C2)c1 [Compound 1.197]
Response given: 8.69

Challenge: What about c1cc(C2CC2)ccc1CN1CCC[C@@H](Nc2ccc3[nH]ncc3c2)C1 [Compound 1.206] ?
Response given: 0.314

---

Target: ROCK1 (Homo sapiens, UniProt Q13464)
Construct: purchased Upstate/Chemicon 14-601
Assay: Rho kinase inhibition assay (IMAP fluorescence polarization), ROCK1;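 note: kinase reaction run 60 min at room temperature, then phosphorylated substrate captured on IMAP beads for 30 min, with fluorescence polarization read in mP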
Assay type: biochemical
Conditions: Avg, 10 μM ATP
Returns the class for an entry based on its Ki. Class ranges: bottom = under 70 nM, middle = from 70 nM up to 200 nM, top = 200 nM and over

| LINE_NOTATION | CLASS |
| --- | --- |
| OCCn1ccc2ccc(CN3CCC[C@H](Nc4ccc5[nH]ncc5c4)C3)cc21 | bottom |
| Clc1ccc(CN2CC[C@@H](Nc3ccc4[nH]ncc4c3)C2)cc1 | bottom |
| CC(=O)NCc1cccc(CN2CCC[C@H](Nc3ccc4[nH]ncc4c3)C2)c1 | middle |
| CC1(C)OC[C@H](COc2cccc(CN3CCC[C@H](Nc4ccc5[nH]ncc5c4)C3)c2)O1 | top |
| c1ccc(CN2CCC[C@H](Nc3ccc4[nH]ncc4c3)C2)cc1 | bottom |
| Cc1ccc(CN2CC[C@@H](Nc3cccc4cnccc34)C2)cc1NS(C)(=O)=O | bottom |
| CCOC(=O)c1ccc(CN2CCC[C@@H](Nc3ccc4[nH]ncc4c3)C2)cc1 | top |
| CCN(CC)C(=O)Nc1cccc(CN2CCC[C@@H](Nc3ccc4[nH]ncc4c3)C2)c1 | middle |

Challenge: Lab note: which band did CCc1ccc(CN2CCC[C@H](Nc3ccc4[nH]ncc4c3)C2)cc1 land in?
Response given: bottom

Challenge: What about CCSc1ccc(CN2CCC[C@@H](Nc3ccc4[nH]ncc4c3)C2)cc1 ?
Response given: middle

Challenge: What about c1ccc(CN2CCC[C@@H](Nc3ccc4[nH]ncc4c3)C2)cc1 ?
Response given: bottom

Challenge: What about Clc1cccc(CN2CCC[C@H](Nc3ccc4[nH]ncc4c3)C2)c1 ?
Response given: middle

Challenge: What about FC(F)(F)c1cccc(CN2CCC[C@H](Nc3ccc4[nH]ncc4c3)C2)c1 ?
Response given: top

Challenge: What about c1cc(N2CCCC2)ccc1CN1CCC[C@@H](Nc2ccc3[nH]ncc3c2)C1 ?
Response given: top

Challenge: What about CC(C)(C)OC(=O)NCc1cccc(CN2CCC[C@H](Nc3ccc4[nH]ncc4c3)C2)c1 ?
Response given: top

Value source: patent US20090325959A1
